// values below are reported IC50
system: Vero; assay: In vitro cytotoxicity against Vero cells; type: functional, cell-based, Chlorocebus sabaeus; conditions: Chlorocebus sabaeus, Vero

Nc1ccn([C@@H]2C[Se][C@@H](CO)O2)c(=O)n1 = > 100 µM

Q: I would be grateful if you could share the reported IC50 for "Nc1nc(O)c2ncn([C@H]3C[Se][C@@H](CO)O3)c2n1" .
A: > 100 µM

Q: Also, "Cc1cn([C@@H]2C[Se][C@@H](CO)O2)c(=O)[nH]c1=O" please.
A: > 100 µM

Q: Also, "OC[C@H]1O[C@@H](n2cnc3c(O)ncnc32)C[Se]1" please.
A: > 100 µM

Q: Also, "Nc1nc(O)c2ncn([C@@H]3C[Se][C@@H](CO)O3)c2n1" please.
A: > 100 µM

Q: Also, Nc1nc(=O)n([C@H]2C[Se][C@@H](CO)O2)cc1F (racemic) please.
A: > 100 µM

====

// values below are reported IC50
system: Vero; assay: In vitro cytotoxicity against Vero cells; type: functional, cell-based, Chlorocebus sabaeus; conditions: Chlorocebus sabaeus, Vero

As a guide, the following entries are already answered.
Cc1cn([C@H]2C[Se][C@@H](CO)O2)c(=O)[nH]c1=O = > 100 µM
O=c1ccn([C@@H]2C[Se][C@@H](CO)O2)c(=O)[nH]1 = > 100 µM

Attention now shifts to the item below.
Q: I would be grateful if you could share the reported IC50 for "OC[C@H]1O[C@H](n2cnc3c(O)ncnc32)C[Se]1" .
A: > 100 µM

====

tested on: Hepatitis B virus; assay: Antiviral activity against Hepatitis B virus (HBV) in 2.2.15 cells; format: functional, organism-based; settings: HepG2 2.2.15
Reported endpoint: EC50

As a guide, the following entries are already answered.
O=c1ccn([C@@H]2C[Se][C@@H](CO)O2)c(=O)[nH]1 = > 10 µM
Cc1cn([C@H]2C[Se][C@@H](CO)O2)c(=O)[nH]c1=O = > 10 µM
OC[C@H]1O[C@@H](n2cnc3c(O)ncnc32)C[Se]1 = > 10 µM

Q: I would be grateful if you could share the reported EC50 for "Nc1nc(O)c2ncn([C@@H]3C[Se][C@@H](CO)O3)c2n1" .
A: > 10 µM

Q: Also, "Cc1cn([C@@H]2C[Se][C@@H](CO)O2)c(=O)[nH]c1=O" please.
A: > 10 µM

Q: Also, Nc1ccn([C@@H]2CS[C@H](CO)O2)c(=O)n1 [LAMIVUDINE] please.
A: 0.008 µM

Q: Also, "Nc1nc(O)c2ncn([C@H]3C[Se][C@@H](CO)O3)c2n1" please.
A: > 10 µM

Q: Also, "Nc1ncnc2c1ncn2[C@@H]1C[Se][C@@H](CO)O1" please.
A: > 10 µM

Q: Also, "OC[C@H]1O[C@H](n2cnc3c(O)ncnc32)C[Se]1" please.
A: > 10 µM

Q: Also, Nc1nc(=O)n([C@@H]2C[Se][C@@H](CO)O2)cc1F (stereo in doubt; 10d) please.
A: > 10 µM

Q: Also, "Nc1ncnc2c1ncn2[C@H]1C[Se][C@@H](CO)O1" please.
A: > 10 µM

====

// values below are reported log10 EC50
system: Human immunodeficiency virus 1; test: Antiviral activity against Immunodeficiency virus type-1 (HIV-1) in peripheral blood mononuclear cells; assay type: functional, organism-based
Please keep in mind that the values are log10 of EC50 expressed in µM.

Nc1ccn([C@H]2C[Se][C@@H](CO)O2)c(=O)n1 (stereo in doubt; (-)) = -0.05

Q: I would be grateful if you could share the reported log10 EC50 for Nc1nc(=O)n([C@H]2C[Se][C@@H](CO)O2)cc1F (stereo in doubt; (+)) .
A: 1.62

Q: Also, Nc1nc(=O)n([C@@H]2C[Se][C@@H](CO)O2)cc1F (stereo in doubt; (+)) please.
A: 1.98

====

// values below are reported pEC50
tested on: Hepatitis B virus; assay: Antiviral activity against Hepatitis B virus (HBV) in 2.2.15 cells; type: functional, organism-based; conditions: HepG2 2.2.15
Please keep in mind that pEC50 is minus log10 of the molar concentration; only the number is needed.

Nc1nc(=O)n([C@H]2C[Se][C@@H](CO)O2)cc1F (racemic) = 5.92

Attention now shifts to the item below.
Q: I would be grateful if you could share the reported pEC50 for Nc1ccn([C@H]2C[Se][C@@H](CO)O2)c(=O)n1 (stereo in doubt; 9c) .
A: 5.92

====

system: Human immunodeficiency virus 1; test: Antiviral activity against Immunodeficiency virus type-1 (HIV-1) in peripheral blood mononuclear cells; type: functional, organism-based
Reported endpoint: pEC50
Please keep in mind that pEC50 is minus log10 of the molar concentration; only the number is needed.

Nc1ccn([C@H]2C[Se][C@@H](CO)O2)c(=O)n1 (stereo in doubt; 9c) = 5.57
Nc1nc(=O)n([C@H]2C[Se][C@@H](CO)O2)cc1F (racemic) = 6.14
Nc1nc(=O)n([C@@H]2C[Se][C@@H](CO)O2)cc1F (stereo in doubt; (-)) = 5.19
Nc1ccn([C@H]2C[Se][C@@H](CO)O2)c(=O)n1 (stereo in doubt; (+)) = 5.47
Nc1nc(=O)n([C@@H]2C[Se][C@@H](CO)O2)cc1F (stereo in doubt; 10d) = 4.24

Attention now shifts to the item below.
Q: Find the measured pEC50: item Nc1nc(=O)n([C@H]2C[Se][C@@H](CO)O2)cc1F (stereo in doubt; (-)) , target or system Human immunodeficiency virus 1.
A: 6.70
